tested_target: GST-MCL-1 (Homo sapiens (Human), UniProt Q07820)
Sequence (Q07820 whole entry): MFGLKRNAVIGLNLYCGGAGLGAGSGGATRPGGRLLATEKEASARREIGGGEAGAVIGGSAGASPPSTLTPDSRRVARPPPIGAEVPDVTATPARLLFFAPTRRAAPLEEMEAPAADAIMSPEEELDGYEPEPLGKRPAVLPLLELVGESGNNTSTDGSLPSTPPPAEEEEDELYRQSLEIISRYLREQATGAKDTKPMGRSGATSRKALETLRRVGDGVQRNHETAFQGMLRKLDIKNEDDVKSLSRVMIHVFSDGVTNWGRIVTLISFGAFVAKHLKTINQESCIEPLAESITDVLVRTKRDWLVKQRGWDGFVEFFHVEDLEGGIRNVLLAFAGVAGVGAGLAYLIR
method_notes: TR-FRET MCL-1 binding assay (competition with probe F-Bak)
condition_info: without HS, read-out: MCL-1 Binding Ki
Listed here are compounds together with their documented pKi.
pKi is defined as minus the log10 of a concentration measured in mol/L.

{"compound": "Cc1c(Cl)c2c(Cl)c(C)c1-c1c(-c3ccc(F)cc3)sc3ncnc(c13)O[C@@H](C(=O)O)Cc1cc(ccc1OCc1ccnc(N3CCO[C@@H](COCC4COCCO4)C3)n1)OC[C@@H](CN1CCN(C)CC1)O2 (stereo partly shown)", "pKi": 10.24}

Request the reported pKi associated with Cc1c(Cl)c2c(Cl)c(C)c1-c1c(C3=CCCC3)sc3ncnc(c13)O[C@@H](C(=O)O)Cc1cc(ccc1OCc1ccnc([C@H]3CC[C@H](OCC4COCCO4)CC3)n1)OC[C@@H](CN1CCN(C)CC1)O2 (stereo partly shown)
10.66

Request the reported pKi associated with `Cc1c(Cl)c2c(Cl)c(C)c1-c1c(-c3ccc(F)cc3)sc3ncnc(c13)O[C@@H](C(=O)O)Cc1cc(ccc1OCc1ccnc(-c3cccc(OC[C@@H]4COCCO4)c3)n1)OC[C@@H](CN1CCN(C)CC1)O2`
10.80

###

tested_target: GST-MCL-1 (Homo sapiens (Human))
method_notes: TR-FRET MCL-1 binding assay (competition with probe F-Bak)
condition_info: read-out: MCL-1 Binding Ki (nM, 10% HS), in the presence of 10% HS
Listed here are molecules together with their documented Ki.
Please provide the amount together with its unit, number first.

Below are worked cases with known answers.
{"molecule": "Cc1c(Cl)c2c(Cl)c(C)c1-c1c(-c3ccc(F)cc3)sc3ncnc(c13)O[C@@H](C(=O)O)Cc1cc(ccc1OCc1ccnc(-c3ccc(OC[C@@H]4COCCO4)nc3)n1)OC[C@@H](CN1CCN(C)CC1)O2", "assay_endpoint": "Ki", "test_value": "6.09 nM"}
{"molecule": "Cc1c(Cl)c2c(Cl)c(C)c1-c1c(C3CCC3)sc3ncnc(c13)O[C@@H](C(=O)O)Cc1cc(ccc1OCc1ccnc([C@H]3CC[C@H](OCC4COCCO4)CC3)n1)OC[C@@H](CN1CCN(C)CC1)O2 (stereo partly drawn)", "assay_endpoint": "Ki", "test_value": "0.55 nM"}
{"molecule": "Cc1c(Cl)c2c(Cl)c(C)c1-c1c(-c3ccc(F)cc3)sc3ncnc(c13)O[C@@H](C(=O)O)Cc1cc(ccc1OCc1ccnc([C@H]3CC[C@@](F)(COC[C@H]4COCCO4)CC3)n1)OC[C@@H](CN1CCN(C)CC1)O2", "assay_endpoint": "Ki", "test_value": "0.521 nM"}
{"molecule": "Cc1c(Cl)c2c(Cl)c(C)c1-c1c(-c3ccc(F)cc3)sc3ncnc(c13)O[C@@H](C(=O)O)Cc1cc(ccc1OCc1ccnc([C@H]3CC[C@H](OC[C@H]4COCCO4)CC3)n1)OC[C@@H](CN1CCN(C)CC1)O2", "assay_endpoint": "Ki", "test_value": "0.1 nM"}
{"molecule": "COc1ccccc1-c1nccc(COc2ccc3cc2C[C@H](C(=O)O)Oc2ncnc4sc(C[C@H]5COCCO5)c(c24)-c2c(C)c(Cl)c(c(Cl)c2C)O[C@H](CN2CCN(C)CC2)CO3)n1", "assay_endpoint": "Ki", "test_value": "0.64 nM"}

Request the reported Ki associated with `Cc1c(Cl)c2c(Cl)c(C)c1-c1c(-c3ccc(F)cc3)sc3ncnc(c13)O[C@@H](C(=O)O)Cc1cc(ccc1OCc1ccnc(C3=CC[C@](F)(COC[C@H]4COCCO4)CC3)n1)OC[C@@H](CN1CCN(C)CC1)O2`
0.63 nM
